# TARGET_OR_SYSTEM: Heat shock factor protein 1 (Mus musculus, UniProt P38532)
# Sequence (P38532 whole entry): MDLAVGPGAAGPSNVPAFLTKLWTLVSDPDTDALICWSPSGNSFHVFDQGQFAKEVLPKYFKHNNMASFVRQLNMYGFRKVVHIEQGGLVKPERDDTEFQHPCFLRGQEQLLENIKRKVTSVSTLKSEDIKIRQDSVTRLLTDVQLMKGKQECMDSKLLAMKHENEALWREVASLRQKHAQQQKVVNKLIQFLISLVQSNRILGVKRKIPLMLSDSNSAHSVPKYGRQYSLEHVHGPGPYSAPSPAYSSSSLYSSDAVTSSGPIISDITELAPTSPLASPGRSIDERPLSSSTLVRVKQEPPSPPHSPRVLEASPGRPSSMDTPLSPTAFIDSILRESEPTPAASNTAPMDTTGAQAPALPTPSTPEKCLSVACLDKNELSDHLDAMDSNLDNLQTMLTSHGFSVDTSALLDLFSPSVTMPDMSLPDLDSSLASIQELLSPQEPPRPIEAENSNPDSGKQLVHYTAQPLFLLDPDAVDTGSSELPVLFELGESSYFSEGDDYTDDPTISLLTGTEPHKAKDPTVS
# METHOD_DESCRIPTION: HSF1 potentiators in luciferase reporter cells, confirmation, cell-based, NIH3T3, luminescence, dose retest (AID 435004);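 note: stress induced by proteasome inhibitor MG132 added 30 min after compound; actives raise luminescence as potentiators of the MG132 stress response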
# Assay type: functional
Activity calls are given as the source filed them. Cut-off read from the data, not from the text of the source: actives have a measured EC50 and inactives only a lower limit.
Response enum: active, inactive

A selection of reference data follows.
>>> class_name("O=C(Nc1c(C(=O)c2ccccc2)oc2ccccc12)c1cc(-c2ccccc2O)n[nH]1")
"inactive"
>>> class_name("Cc1ccc(NC2OC(CO)C(O)C2O)cc1[N+](=O)[O-] (configuration not stated)")
"inactive"
>>> class_name("O=C(COC(=O)/C=C/C(=O)OCC(=O)Nc1ccccc1F)Nc1ccccc1F")
"active"
>>> class_name("Cc1cccc(N=Nc2c(O)nc(O)c(C#N)c2C)c1")
"active"
>>> class_name("O=C1C([N-]S(=O)(=O)c2cccs2)=C([n+]2cccc(Cc3ccccc3)c2)C(=O)c2ccccc21")
"inactive"
>>> class_name("O=[N+]([O-])c1cc(-c2ncccn2)c([N+](=O)[O-])s1")
"active"

Challenge: Just curious, what result did CN1CCc2nc(SCc3ccc(Cl)cc3)c(C#N)c(-c3cccs3)c2C1 get here?
Response given: active

Challenge: Just curious, what result did COCc1cc(O)nc(Nc2nc3ccc(C)cc3o2)n1 get here?
Response given: active

Challenge: Just curious, what result did COc1ccc(CCNCc2ccc(Br)cc2)cc1OC get here?
Response given: inactive

Challenge: Just curious, what result did CCCCC(=O)OCC(=O)c1[nH]c(C)c(C(=O)OCC)c1C get here?
Response given: inactive
